# hCRHR1 EC50 (nM); HTRF cAMP assay, CHO-K1 cells stably expressing hCRHR1 annotations
- tested on: T1, human corticotropin-releasing hormone receptor 1 (human, UniProt P34998 24-415)
- T1 sequence (looked up): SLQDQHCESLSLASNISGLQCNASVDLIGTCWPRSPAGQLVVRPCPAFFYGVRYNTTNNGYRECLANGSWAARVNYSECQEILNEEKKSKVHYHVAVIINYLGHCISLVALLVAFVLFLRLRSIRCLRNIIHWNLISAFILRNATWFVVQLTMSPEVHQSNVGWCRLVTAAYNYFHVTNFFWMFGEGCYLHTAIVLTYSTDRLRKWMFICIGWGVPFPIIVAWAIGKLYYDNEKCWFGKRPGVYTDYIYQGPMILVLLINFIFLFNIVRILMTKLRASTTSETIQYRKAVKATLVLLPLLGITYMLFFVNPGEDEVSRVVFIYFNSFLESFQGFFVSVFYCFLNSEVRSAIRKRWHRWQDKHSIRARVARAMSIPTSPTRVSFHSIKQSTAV
- experiment: cell-based or functional assay
Non-standard residues stand in square brackets, D forms with d. No end group written: not given here. Nle = CCCC[C@H](N)C(=O)O; lip = not defined here; Aib = CC(C)(N)C(=O)O

{"binder": "IVLSLDVPIGLLQILLEQARARAAREQAK[Aib]NAEI[Nle]AEI-NH2 (not fully specified (residue 29); also: lipid and spacer on Lys29 not given here) [SEQ ID NO: 236]", "recorded value": "> 5000 nM"}
{"binder": "IVLSLDVPIGLLQILLSQARARAAREQAKENAEI[Nle]AEV-NH2 (not fully specified (residue 29); also: lipid and spacer on Lys29 not given here) [SEQ ID NO: 239]", "recorded value": "> 5000 nM"}

Q: Give hCRHR1 EC50 (nM); HTRF cAMP assay, CHO-K1 cells stably expressing hCRHR1 for IVLSLDVPIGLLQILLEQARARAAREQAKTNAEI[Nle]AEV-NH2 (not fully specified (residue 29); also: lipid and spacer on Lys29 not given here) [SEQ ID NO: 45]
Result: 56 nM

Q: Give hCRHR1 EC50 (nM); HTRF cAMP assay, CHO-K1 cells stably expressing hCRHR1 for IVLSLDVPIGLLQILLEQARARAAREQAKTNAEI[Nle]AEI-NH2 (not fully specified (residue 29); also: lipid and spacer on Lys29 not given here) [SEQ ID NO: 69]
Result: > 5000 nM

Q: Give hCRHR1 EC50 (nM); HTRF cAMP assay, CHO-K1 cells stably expressing hCRHR1 for IVLSLDVPIGLLQILLSQARARAAREQAK(lip)TNAEI[Nle]AEV-NH2 (not fully specified; reading uncertain) [SEQ ID NO: 83]
Result: > 5000 nM
